Target: SAE1 (Homo sapiens (Human), UniProt Q9UBE0+Q9UBT2)
Sequence (Q9UBE0 whole entry): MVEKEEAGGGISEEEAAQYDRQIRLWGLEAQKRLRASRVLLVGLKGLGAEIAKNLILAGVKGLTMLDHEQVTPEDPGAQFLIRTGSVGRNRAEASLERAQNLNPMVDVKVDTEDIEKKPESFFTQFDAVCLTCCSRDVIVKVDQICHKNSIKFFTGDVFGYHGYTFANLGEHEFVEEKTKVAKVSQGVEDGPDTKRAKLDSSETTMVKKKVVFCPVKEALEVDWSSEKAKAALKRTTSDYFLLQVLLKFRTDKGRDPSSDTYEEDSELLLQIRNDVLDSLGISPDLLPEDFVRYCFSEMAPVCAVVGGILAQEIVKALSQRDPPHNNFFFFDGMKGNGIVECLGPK
Sequence (Q9UBT2 whole entry): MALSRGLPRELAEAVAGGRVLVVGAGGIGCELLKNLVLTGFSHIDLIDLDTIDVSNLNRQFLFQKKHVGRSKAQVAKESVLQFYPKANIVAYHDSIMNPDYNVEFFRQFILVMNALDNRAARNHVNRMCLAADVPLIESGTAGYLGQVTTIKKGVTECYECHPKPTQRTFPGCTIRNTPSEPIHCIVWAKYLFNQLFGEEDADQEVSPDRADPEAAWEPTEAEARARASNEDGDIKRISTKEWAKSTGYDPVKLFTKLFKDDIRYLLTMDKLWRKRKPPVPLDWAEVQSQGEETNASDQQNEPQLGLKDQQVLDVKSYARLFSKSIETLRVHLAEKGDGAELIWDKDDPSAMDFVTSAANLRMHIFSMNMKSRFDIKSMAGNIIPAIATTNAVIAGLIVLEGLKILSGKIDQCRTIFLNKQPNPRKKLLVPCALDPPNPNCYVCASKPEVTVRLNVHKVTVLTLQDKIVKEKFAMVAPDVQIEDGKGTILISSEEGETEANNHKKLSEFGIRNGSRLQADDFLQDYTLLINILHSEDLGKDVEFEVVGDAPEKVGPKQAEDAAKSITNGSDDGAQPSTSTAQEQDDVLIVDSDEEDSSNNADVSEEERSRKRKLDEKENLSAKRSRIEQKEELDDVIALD
Assay: SAE High Throughput Biochemical Assay (HTRF), 15 min preincubation
Conditions: read-out: 15 min preincubation HTRF IC50 (μM) Ave, SAE1 12.5 nM, ATP 100 μM
measured property: IC50 (µM)
State just the number; it will be interpreted in µM.

# count of solved cases: 4
compound: CCn1cc(-c2ccccc2[C@@H]2CN(C(=O)C#CCN(C)C)Cc3sc(C#N)cc32)c(C(F)(F)F)n1 [Example 132]
target or system: SAE1 (Homo sapiens (Human), UniProt Q9UBE0+Q9UBT2)
measured property: IC50
value reported: 0.18
--
compound: C=CC(=O)N1Cc2sc(C#N)cc2[C@H](c2cccc(F)c2-c2cn(CC)nc2C(F)(F)F)C1 [Compound 227]
target or system: SAE1 (Homo sapiens (Human), UniProt Q9UBE0+Q9UBT2)
measured property: IC50
value reported: 0.12
--
compound: CCn1cc(-c2c(C)cccc2C2CN(C(=O)/C=C/CN(C)C)Cc3sc(C#N)cc32)c(C(F)(F)F)n1 (stereo not drawn) [Example 200]
target or system: SAE1 (Homo sapiens (Human), UniProt Q9UBE0+Q9UBT2)
measured property: IC50
value reported: 2.28
--
compound: CCn1cc(-c2c(F)cccc2[C@@H]2CN(C(=O)/C=C/CNC)Cc3sc(C#N)c(C)c32)c(C(F)(F)F)n1 [Example 217]
target or system: SAE1 (Homo sapiens (Human), UniProt Q9UBE0+Q9UBT2)
measured property: IC50
value reported: 0.13

Reported IC50 (SAE1 (Homo sapiens (Human), UniProt Q9UBE0+Q9UBT2)) for entry CCn1cc(-c2ccccc2[C@@H]2CN(C(=O)/C=C/CN3CCC(C(=O)O)C3)Cc3sc(C#N)cc32)c(C(F)(F)F)n1 (stereo partly drawn) [Example 5] is 10.3

Reported IC50 (SAE1 (Homo sapiens (Human), UniProt Q9UBE0+Q9UBT2)) for entry CCn1cc(-c2c(F)cccc2[C@@H]2CN(C(=O)/C=C/CNC(C)(C)C)Cc3sc(C#N)cc32)c(C(F)(F)F)n1 [Example 127] is 1.07

Reported IC50 (SAE1 (Homo sapiens (Human), UniProt Q9UBE0+Q9UBT2)) for entry CCn1cc(-c2c(F)cccc2[C@@H]2CN(C(=O)/C=C/CN)Cc3sc(C#N)cc32)c(C(F)(F)F)n1 [Example 51] is 1.29

Reported IC50 (SAE1 (Homo sapiens (Human), UniProt Q9UBE0+Q9UBT2)) for entry CCn1cc(-c2cc(C)ccc2C2CN(C(=O)/C=C/CN(C)C)Cc3sc(C#N)cc32)c(C(F)(F)F)n1 (stereo not drawn) [Example 210] is 19.7

Reported IC50 (SAE1 (Homo sapiens (Human), UniProt Q9UBE0+Q9UBT2)) for entry CN(C)C/C=C/C(=O)N1Cc2sc(C#N)cc2[C@H](c2ccccc2-c2cn(CC(F)F)nc2C(F)(F)F)C1 [Example 18] is 8.99

Reported IC50 (SAE1 (Homo sapiens (Human), UniProt Q9UBE0+Q9UBT2)) for entry CCn1cc(-c2ccccc2[C@@H]2CN(C(=O)/C=C/[C@@H]3CCCN3)Cc3sc(C#N)cc32)c(C(F)(F)F)n1 [Example 112] is 0.76

Reported IC50 (SAE1 (Homo sapiens (Human), UniProt Q9UBE0+Q9UBT2)) for entry CCn1cc(-c2c(F)cccc2[C@@H]2CN(C(=O)/C=C/CN(C)C)Cc3sc(C#N)cc32)c(C(F)(F)F)n1 [Example 215] is 1.35

Reported IC50 (SAE1 (Homo sapiens (Human), UniProt Q9UBE0+Q9UBT2)) for entry CCn1cc(-c2c(F)cccc2[C@@H]2CN(C(=O)/C=C/CN)Cc3sc(C#N)c(C)c32)c(C(F)(F)F)n1 [Compound 224] is 0.172

Reported IC50 (SAE1 (Homo sapiens (Human), UniProt Q9UBE0+Q9UBT2)) for entry CCn1cc(-c2c(F)cccc2[C@@H]2CN(C(=O)/C=C/C3CC[C@@H](C)N3)Cc3sc(C#N)cc32)c(C(F)(F)F)n1 (stereo in doubt) [Example 93] is 0.76

Reported IC50 (SAE1 (Homo sapiens (Human), UniProt Q9UBE0+Q9UBT2)) for entry CN(C)C/C=C/C(=O)N1Cc2sc(C#N)cc2[C@H](c2ccccc2-c2cn(C)nc2C(F)(F)F)C1 [Example 3] is 7.87

Reported IC50 (SAE1 (Homo sapiens (Human), UniProt Q9UBE0+Q9UBT2)) for entry CCn1cc(-c2c(Cl)cccc2[C@@H]2CN(C(=O)/C=C/CN(C)C)Cc3sc(C#N)cc32)c(C(F)(F)F)n1 [Compound 243] is 1.17

* * *

Target: SAE1 (Homo sapiens (Human), UniProt Q9UBE0+Q9UBT2)
Assay: SAE High Throughput Biochemical Assay (HTRF), 15 min preincubation
Details: read-out: 15 min preincubation HTRF IC50 (μM) Ave, SAE1 12.5 nM, ATP 100 μM
Field: label. Allowed values: true (1) (IC50 < 3 µM) or false (0) (IC50 >= 3 µM).

Answered examples (3):
molecule: CCOC(=O)CCn1cc(-c2ccccc2[C@@H]2CN(C(=O)/C=C/CN(C)C)Cc3sc(C#N)cc32)c(C(F)(F)F)n1
classification: false (0)

molecule: CCn1cc(-c2ccccc2[C@@H]2CN(C(=O)/C=C/CNC3(C)CCOC3)Cc3sc(C#N)cc32)c(C(F)(F)F)n1 (stereo partly shown)
classification: true (1)

molecule: C=CC(=O)N1Cc2sc(C#N)cc2C(c2ccc(NC(C)=O)cc2-c2cn(CC)nc2C(F)(F)F)C1 (stereo not shown)
classification: true (1)

Lab note: confirm whether the reported IC50 for this molecule is below 3 µM, equality not counting. molecule: `CCOC(=O)CCCn1cc(-c2ccccc2[C@@H]2CN(C(=O)/C=C/CN(C)C)Cc3sc(C#N)cc32)c(C(F)(F)F)n1` false (0)

Lab note: confirm whether the reported IC50 for this molecule is below 3 µM, equality not counting. molecule: `CN(C)C/C=C/C(=O)N1Cc2sc(C#N)cc2[C@H](c2ccccc2-c2cn(Cc3ncno3)nc2C(F)(F)F)C1` false (0)

Lab note: confirm whether the reported IC50 for this molecule is below 3 µM, equality not counting. molecule: CCn1cc(C2=C(C3CN(C(=O)/C=C/CN(C)C)Cc4sc(C#N)cc43)CCCC2)c(C(F)(F)F)n1 (stereo not shown) false (0)

* * *

Molecular target: SAE1 (Homo sapiens (Human), UniProt Q9UBE0+Q9UBT2)
Test: SAE High Throughput Biochemical Assay (HTRF), 15 min preincubation
Conditions: read-out: 15 min preincubation HTRF IC50 (μM) Ave, SAE1 12.5 nM, ATP 100 μM
Listed next: entries and their corresponding IC50.

# count of solved cases: 2
mol: CCn1cc(-c2c(F)cccc2[C@@H]2CN(C(=O)/C=C/CNC3CCN(C(C)=O)CC3)Cc3sc(C#N)cc32)c(C(F)(F)F)n1
value reported: > 25 µM

mol: C=C(CO)C(=O)N1Cc2sc(C#N)cc2[C@H](c2ccccc2-c2cn(CC)nc2C(F)(F)F)C1
value reported: > 25 µM

Per the records, this molecule ( `CCn1cc(-c2ccccc2[C@@H]2CN(C(=O)/C=C/C(C)(C)NC)Cc3sc(C#N)cc32)c(C(F)(F)F)n1` ) has IC50 equal to > 25 µM
